pIC50: −log10 of the molar value.
// note: pIC50 values for BTK (Homo sapiens, UniProt Q06187) were reported in different studies

Known results for molecules:
[
  {
    "Molecule": "C=CC(=O)N1CC[C@]2(C1)C[C@H](n1c(NC(=O)c3cccs3)nc3ccccc31)C2",
    "pIC50": 7.48
  },
  {
    "Molecule": "Cc1cc(-c2cc(Nc3ccc(N4CCN(C)CC4)cn3)ncn2)ccc1CNC(=O)c1ccn(C(C)(C)C)n1",
    "pIC50": "> 8.00"
  },
  {
    "Molecule": "Cc1cc(-c2ccnc(Nc3cnn4c3CCC4)n2)ccc1CNC(=O)c1cnc(C(C)(C)C)s1",
    "pIC50": "> 8.00"
  },
  {
    "Molecule": "C=CC(=O)Nc1cc(Nc2ncc3cc(-c4c(C)cc[nH]c4=O)ccc3n2)ccc1OCCOC",
    "pIC50": "> 7.00"
  },
  {
    "Molecule": "CC#CC(=O)N1CCC[C@H]1c1nc(-c2ccc(OCc3ccccc3)nc2)c2c(N)nccn12",
    "pIC50": "< 6.12"
  },
  {
    "Molecule": "COc1ccc(-c2cn(C3CCCN(C(=O)/C=C/CN(C)C)C3)c3c(=O)[nH]nc(N)c23)cc1Cl (stereo not drawn)",
    "pIC50": "≥ 8.00"
  }
]

Could you now consider this next molecule?
Give pIC50 for this entry on BTK (Homo sapiens, UniProt Q06187): C=CC(=O)N[C@H]1C[C@H](O)CN(c2c(F)cc(C(N)=O)c3[nH]c(C)c(C)c23)C1 7.00 to 8.00

----------
Kindly find below pIC50 information for BTK (Homo sapiens, UniProt Q06187) taken from the literature.
pIC50: −log10 of the molar value.

The cases that follow already have their pIC50 on record.
[
  {
    "Compound": "C=CC(=O)N(C)c1cccc(-n2c(=O)n(-c3ccc(C)c(OC)c3)c3c(N)ncnc32)c1",
    "Assayed Target": "BTK (Homo sapiens, UniProt Q06187)",
    "pIC50": "> 7.00"
  },
  {
    "Compound": "C=CC(=O)Nc1cccc(-c2cc(CN3CCOCC3)cc(Nc3cc(C4CC4)[nH]n3)n2)c1",
    "Assayed Target": "BTK (Homo sapiens, UniProt Q06187)",
    "pIC50": 7.16
  },
  {
    "Compound": "Cc1cc(-c2nc(N3CCOCC3)cn3nccc23)ccc1CNC(=O)c1cnn(C(C)(C)C)n1",
    "Assayed Target": "BTK (Homo sapiens, UniProt Q06187)",
    "pIC50": "6.00 to 8.00"
  },
  {
    "Compound": "C=CC(=O)N1C[C@@H]2C[C@H]1[C@@H](n1nc(-c3ccc(C(=O)Nc4cc(F)ccn4)cc3F)c3c(N)ncnc31)C2",
    "Assayed Target": "BTK (Homo sapiens, UniProt Q06187)",
    "pIC50": 8.96
  },
  {
    "Compound": "C[C@@H](O)[C@@H](Nc1cc(F)cc(Cl)c1)C(=O)N[C@@H]1CCCN(c2ncnc3[nH]ncc23)C1",
    "Assayed Target": "BTK (Homo sapiens, UniProt Q06187)",
    "pIC50": "> 7.00"
  },
  {
    "Compound": "C=CC(=O)N(CC)c1cccc(Nc2ncc3cc(-c4c(C)ccn(C(C)=O)c4=O)ccc3n2)c1",
    "Assayed Target": "BTK (Homo sapiens, UniProt Q06187)",
    "pIC50": "6.00 to 7.00"
  }
]

Now for another entry.
Consider the compound Cc1cc(-c2ccnc(Nc3cnn(C)c3)n2)ccc1C(CO)NC(=O)c1cnc(C(C)(C)C)s1 (stereo not shown) tested on BTK (Homo sapiens, UniProt Q06187); state its pIC50. > 8.00

----------
// cross-source set; read-out = IC50; system = UniProt Q06187

[
  {
    "Compound": "CN(C(=O)/C(C#N)=C/C1CC1)c1cccc(-n2c(=O)n(-c3ccc(Oc4ccccc4)cc3)c3c(N)ncnc32)c1",
    "Assayed Target": "UniProt Q06187",
    "IC50": "< 100 nM"
  },
  {
    "Compound": "C=CC(=O)N1CC(CNc2nc(Nc3cnn(C)c3)nc3ccoc23)C1",
    "Assayed Target": "UniProt Q06187",
    "IC50": "≤ 50 nM"
  },
  {
    "Compound": "CCCc1ccc(S(=O)(=O)Nc2ccc(F)c(C(=O)c3c[nH]c4ncc(-c5cnn(C)c5)cc34)c2F)cc1",
    "Assayed Target": "UniProt Q06187",
    "IC50": "≤ 10000 nM"
  },
  {
    "Compound": "Cc1cc(-c2ccnc(Nc3cnn(C)c3)n2)ccc1CNC(=O)N1CC[C@@H](C(C)(C)C)C1",
    "Assayed Target": "UniProt Q06187",
    "IC50": "< 10 nM"
  },
  {
    "Compound": "COc1ccc(F)c(C(=O)c2c[nH]c3ncc(-c4cccnc4)cc23)c1F",
    "Assayed Target": "UniProt Q06187",
    "IC50": "≤ 10000 nM"
  }
]

Determine from records and report IC50 for C[C@H]1CNC(=O)c2cnn3ccc(nc23)N[C@H](C)c2cc(F)cc(Cl)c2O1 3.97 nM

----------
// compounds with reported IC50 on BTK (Homo sapiens), multi-publication

[
  {
    "Compound": "Cc1cc(-c2ncnc3cc(C4=CCS(=O)(=O)CC4)[nH]c23)ccc1CNC(=O)c1cnc(C(C)(C)C)s1",
    "IC50": "< 10 nM"
  },
  {
    "Compound": "C[C@@H](Nc1ccccc1)C(=O)NC1CCCN(c2ncnc3[nH]ccc23)C1 (stereo partly shown)",
    "IC50": "100 to 999 nM"
  },
  {
    "Compound": "CC#CC(=O)N[C@H]1CCC[C@@H](c2c(F)c(F)c(C(N)=O)c3[nH]c(C)c(F)c23)C1",
    "IC50": "1 to 10 nM"
  },
  {
    "Compound": "CN(C)C/C=C/C(=O)N1CC[C@@H](n2nc(-c3ccc(C(=O)Nc4cc(C#N)ccn4)cc3)c3c(N)ncnc32)C1",
    "IC50": "< 1 nM"
  },
  {
    "Compound": "Nc1ccc(F)c(C(=O)c2c[nH]c3ncc(-c4cccnc4)cc23)c1F",
    "IC50": "≤ 10000 nM"
  }
]

Find IC50 for NC(=O)c1ccc(-c2ccnc3[nH]cc(C(=O)c4cccc(Cl)c4Cl)c23)cc1 on BTK (Homo sapiens) and write it down. ≤ 10000 nM

Give the observed IC50 of Cn1cc(-c2cn3nccc3c(N3CCC(C)(CNC(=O)c4cnc(C(C)(C)C)o4)CC3)n2)cn1 for BTK (Homo sapiens). 10 to 1000 nM

# assay system BTK (Homo sapiens): give IC50 of C/C=C/C(=O)Nc1cccc(Nc2cc(Nc3cccc(Br)c3)ncn2)c1 ≥ 10000 nM

Please tell me the measured IC50 for NC(=O)c1nnc2c(-c3ccc4nc(C5CCCOC5)[nH]c4c3)cccc2c1N (stereo not shown) ; system: BTK (Homo sapiens). 794 nM

Provide IC50, system BTK (Homo sapiens), entry Nc1nc(N[C@H]2CCCN(C(=O)CNc3cc(Cl)cc(Cl)c3)C2)c2cc[nH]c2n1 > 10000 nM

----------
pIC50: −log10 of the molar value.
Across several studies, molecules have been characterized by their pIC50 on BTK (Homo sapiens, UniProt Q06187); a selection follows.
Sequence (Q06187 whole entry): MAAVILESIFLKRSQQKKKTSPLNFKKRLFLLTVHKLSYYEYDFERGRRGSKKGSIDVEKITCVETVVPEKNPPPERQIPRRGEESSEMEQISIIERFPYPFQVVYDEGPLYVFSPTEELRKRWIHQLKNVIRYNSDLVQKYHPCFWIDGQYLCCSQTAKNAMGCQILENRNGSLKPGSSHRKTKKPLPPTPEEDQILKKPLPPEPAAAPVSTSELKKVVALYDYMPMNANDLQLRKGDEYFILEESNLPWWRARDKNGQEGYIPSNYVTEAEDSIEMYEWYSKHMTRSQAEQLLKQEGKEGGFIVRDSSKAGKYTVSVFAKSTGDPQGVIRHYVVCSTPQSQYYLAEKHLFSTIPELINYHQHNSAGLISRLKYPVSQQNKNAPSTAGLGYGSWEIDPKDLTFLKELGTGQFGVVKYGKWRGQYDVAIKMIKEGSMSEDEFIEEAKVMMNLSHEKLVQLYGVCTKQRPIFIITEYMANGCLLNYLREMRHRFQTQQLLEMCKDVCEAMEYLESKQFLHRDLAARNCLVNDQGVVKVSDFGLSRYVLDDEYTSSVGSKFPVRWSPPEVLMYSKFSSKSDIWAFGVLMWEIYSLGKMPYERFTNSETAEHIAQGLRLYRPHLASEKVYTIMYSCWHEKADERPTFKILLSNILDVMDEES

[
  {
    "Molecule": "Cc1ccnc(NC(=O)c2ccc(-c3nn([C@@H]4CCN(C(=O)/C=C/CN(C)C5CC5)C4)c4ncnc(N)c34)cc2)c1",
    "pIC50": "> 9.00"
  }
]

Output reported pIC50 of the molecule Cc1cc(NCC(=O)NC2CCCN(c3ncnc4[nH]ccc34)C2)n(C)n1 (stereo not drawn) on BTK (Homo sapiens, UniProt Q06187). < 5.00

Provide measured pIC50 on BTK (Homo sapiens, UniProt Q06187) for C#CC(=O)N1CCC[C@@H](c2c(F)cc(C(N)=O)c3[nH]c(C)c(Cl)c23)C1 please. > 8.00

Jot down pIC50 (BTK (Homo sapiens, UniProt Q06187)) of CN1CC[C@H](n2cc(Nc3nccc(-c4ccc(CNC(=O)N5CCC(C(C)(C)C)C5)c(C(F)(F)F)c4)n3)cn2)C1 (stereo partly drawn) . > 8.00

// output pIC50; input C=CC(=O)N1CCC(Oc2cnccc2-c2ccc(CNC(=O)c3cn(C(C)(C)C)nn3)c(C)c2)C1 (stereo not drawn) ; system BTK (Homo sapiens, UniProt Q06187) < 8.00

Lab note: BTK (Homo sapiens, UniProt Q06187) assay, enter pIC50 for Cc1cc(-c2ccnc(Nc3cc4n(n3)CCN(C)C4)n2)ccc1CNC(=O)c1cnc(C(C)(C)C)s1 here > 8.00

Quote pIC50 with test system BTK (Homo sapiens, UniProt Q06187) for Cn1cc(-c2cn3nccc3c(N3C[C@H]4CC[C@@H](C3)[C@H]4CNC(=O)c3noc(C(C)(C)C)n3)n2)cn1 6.00 to 8.00

Under BTK (Homo sapiens, UniProt Q06187), report pIC50 for C=CC(=O)N1CC2CCC1C(n1nc(-c3ccc(Oc4ccccc4)cc3)c3c(N)ncnc31)C2 (stereo not drawn) 8.55

Provide pIC50, tested on BTK (Homo sapiens, UniProt Q06187), for CC(C)(C)c1ncc(C(=O)NC(CO)c2ccc(-c3ncnc4cc(C5=CCS(=O)(=O)CC5)[nH]c34)cc2)s1 (stereo not drawn) . 7.00 to 8.00
